Attribution: patent US20220125051A1

Measured pest or weed control at 500 g/ha by item
- Test system: Euphorbia heterophylla (EPHHL)
- test.details: Post-emergence efficacy, Method A
- Type: in vivo
- measurement.context: Euphorbia heterophylla, post-emergence, 312 h; Application rate 500 g/Ha; evaluated after 13 days; 100=total damage to plant, 0=no damage to plant; read-out: Control of weed species after post-emergence application, EPHHL
Write the number in % without appending the unit.

Reference set (2 entries):
{"smiles.input": "Cc1cccnc1-c1cc[n+](CCC(=O)[O-])nc1", "pest or weed control at 500 g/ha (%)": 20}
{"smiles.input": "Cc1cc(-c2cc[n+](CCS(=O)(=O)[O-])nc2)ncn1", "pest or weed control at 500 g/ha (%)": 100}

Next up:
Task: Recorded pest or weed control at 500 g/ha of `CN(C)c1ccnc(-c2cc[n+](CCC(=O)[O-])nc2)n1` , please.
Result: 50
